test system: normal primary NK cells, pool 3 (3 donors) (IL-2 2.5 ng/mL); assay: drug sensitivity score (DSS) (DSS units); higher = more sensitive; extreme values may be limits of the assay; conditions: 72 h
The entries below come with measured drug sensitivity score values attached.
observed property: drug sensitivity score

>  <compound>
COc1ccc(-c2ccc3ncc4c(c3c2)n(-c2ccc(N3CCNCC3)c(C(F)(F)F)c2)c(=O)n4C)cn1 [NVP-BGT226] (max concentration tested 1000 nM)

>  <observed property>
drug sensitivity score

>  <reported value>
8.86

$$$$
>  <compound>
COc1ccc(S(=O)(=O)Nc2cccnc2Nc2ccc(O)cc2)cc1 [ABT-751] (max concentration tested 10000 nM)

>  <observed property>
drug sensitivity score

>  <reported value>
1.19

$$$$
>  <compound>
O=C(O)c1ccc2c(c1)nc(Nc1cccc(Cl)c1)c1ccncc12 [Silmitasertib] (max concentration tested 10000 nM)

>  <observed property>
drug sensitivity score

>  <reported value>
5.54

$$$$

====

The entries below come with measured percent inhibition of viability values attached.
system: YT (IL-2 2.5 ng/mL); assay: percent inhibition of viability; higher = more inhibition; settings: 72 h; 1000 nM
observed property: percent inhibition of viability (%)

>  <compound>
CN1CCN(CCOc2cc(OC3CCOCC3)c3c(Nc4c(Cl)ccc5c4OCO5)ncnc3c2)CC1 [Saracatinib] (max concentration tested 10000 nM)

>  <reported value>
26.4

$$$$
>  <compound>
Cc1cn(-c2cc(NC(=O)c3ccc(C)c(Nc4nccc(-c5cccnc5)n4)c3)cc(C(F)(F)F)c2)cn1 [Nilotinib] (max concentration tested 10000 nM)

>  <reported value>
16.1

$$$$
>  <compound>
CON(C)C(=O)N1N=C(c2cc(F)ccc2F)S[C@@]1(CCCN)c1ccccc1 [ARRY-520] (max concentration tested 1000 nM)

>  <reported value>
65.7

$$$$
>  <compound>
CCCCCOC(=O)Nc1nc(=O)n([C@@H]2O[C@H](C)[C@@H](O)[C@H]2O)cc1F [Capecitabine] (max concentration tested 10000 nM)

>  <reported value>
-0.84

$$$$
>  <compound>
Cn1nnc2c(C(N)=O)ncn2c1=O [Temozolomide] (max concentration tested 100000 nM)

>  <reported value>
-0.54

$$$$
>  <compound>
CC(=O)Nc1ccc(C(=O)Nc2ccccc2N)cc1 [Tacedinaline] (max concentration tested 1000 nM)

>  <reported value>
25.3

$$$$
>  <compound>
CNNCc1ccc(C(=O)NC(C)C)cc1 [Procarbazine] (max concentration tested 10000 nM)

>  <reported value>
-5.83

$$$$
>  <compound>
Cc1ncc(-c2ccnc(Nc3ccc(S(C)(=O)=O)cc3)n2)n1C(C)C [AZD-5438] (max concentration tested 10000 nM)

>  <reported value>
24

$$$$
>  <compound>
Cc1cc(OCc2nnc(SC3CCCC3)n2-c2cccnc2)ccc1-c1ccc(S(C)(=O)=O)cc1 [NMS-873] (max concentration tested 10000 nM)

>  <reported value>
56.4

$$$$
>  <compound>
COc1ccc(-c2cc3c(C)nc(N)nc3n([C@H]3CC[C@H](OCCO)CC3)c2=O)cn1 (max concentration tested 10000 nM)

>  <reported value>
76.5

$$$$
>  <compound>
Clc1ccccc1C(c1ccccc1)(c1ccccc1)n1cccn1 [TRAM-34] (max concentration tested 1000 nM)

>  <reported value>
12.2

$$$$
>  <compound>
CS(=O)(=O)N1CCc2c(-c3cnc(N)nc3)nc(N3CCOCC3)nc21 (max concentration tested 10000 nM)

>  <reported value>
26.2

$$$$
>  <compound>
O=c1ncn2nc(Sc3ccc(F)cc3F)ccc2c1-c1c(Cl)cccc1Cl [VX 745] (max concentration tested 10000 nM)

>  <reported value>
8.23

$$$$
>  <compound>
CO[C@H]1/C=C\C=C(/C)C(=O)NC2=CC(=O)C(NCCN(C)C)=C(C[C@@H](C)C[C@H](OC)[C@H](O)[C@@H](C)/C=C(\C)[C@@H]1OC(N)=O)C2=O [Alvespimycin] (max concentration tested 1000 nM)

>  <reported value>
97

$$$$
>  <compound>
O=C(O)c1ccc2c(c1)nc(Nc1cccc(Cl)c1)c1ccncc12 [Silmitasertib] (max concentration tested 10000 nM)

>  <reported value>
17.7

$$$$
>  <compound>
Cc1ccc(NC(=O)c2ccc(CN3CCN(C)CC3)cc2)cc1Nc1nccc(-c2cccnc2)n1 [Imatinib] (max concentration tested 10000 nM)

>  <reported value>
5.22

$$$$
>  <compound>
CC(C)N(CCCNC(=O)Nc1ccc(C(C)(C)C)cc1)C[C@H]1O[C@@H](n2cc(Br)c3c(N)ncnc32)[C@H](O)[C@@H]1O [SGC0946] (max concentration tested 10000 nM)

>  <reported value>
0.95

$$$$
>  <compound>
CN(C)Cc1ccc(S(=O)(=O)n2ccc(/C=C/C(=O)NO)c2)cc1 [Resminostat] (max concentration tested 10000 nM)

>  <reported value>
27.7

$$$$
>  <compound>
CC(C)n1nc(-c2ccc3oc(N)nc3c2)c2c(N)ncnc21 [INK128] (max concentration tested 1000 nM)

>  <reported value>
78

$$$$
>  <compound>
COc1cc2ncnc(Oc3cccc(NC(=O)Nc4cc(C(C)(C)C(F)(F)F)on4)c3)c2cc1OC (max concentration tested 10000 nM)

>  <reported value>
27.3

$$$$
>  <compound>
C[C@@H]1CN(Cc2ccc(F)cc2)[C@@H](C)CN1C(=O)c1cc2c(C(=O)C(=O)N(C)C)cn(C)c2cc1Cl [Talmapimod] (max concentration tested 10000 nM)

>  <reported value>
5.29

$$$$
>  <compound>
C/C(=C\c1csc(C)n1)[C@@H]1C[C@@H]2O[C@]2(C)CCC[C@H](C)[C@H](O)[C@@H](C)C(=O)C(C)(C)[C@@H](O)CC(=O)O1 [Patupilone] (max concentration tested 1000 nM)

>  <reported value>
96.7

$$$$
>  <compound>
O=C(Nc1c[nH]nc1-c1nc2ccc(CN3CCOCC3)cc2[nH]1)NC1CC1 [AT9283] (max concentration tested 1000 nM)

>  <reported value>
51.5

$$$$
>  <compound>
CN(C)C[C@@H]1CCn2cc(c3ccccc32)C2=C(C(=O)NC2=O)c2cn(c3ccccc23)CCO1 [Ruboxistaurin] (max concentration tested 10000 nM)

>  <reported value>
5.34

$$$$
